# experimental details: in vivo
# measurement context: both, pig, in vivo, po, time to maximal plasma concentration
readout: Tmax

[[record]]
compound = "CC(C)(c1ccc(O)cc1)c1ccc(O)cc1 [BPA, bisphenol A]"
measurement = "~1 h"


----------
# experimental details: Population semiphysiologically based 9-compartment TK model (NLME) of plasma and urine data in piglets
# measurement context: both, pig, plasma and urine, other: intravenous and oral (data sets combined), tvK30, elimination rate constant from plasma to urine, Mean, bootstrap mean
readout: k el (s⁻¹)

[[record]]
compound = "CC(C)(c1ccc(O)cc1)c1ccc(O)cc1 [BPA, bisphenol A]"
measurement_units = "s⁻¹"
measurement = "7.22e-07"


----------
# experimental details: in vivo
# measurement context: pig, in vivo, po
readout: bioavailability

[[record]]
smi = "CC(C)(c1ccc(O)cc1)c1ccc(O)cc1"
measurement = "0.5%"


----------
# experimental details: in vivo
# measurement context: both, pig, in vivo
readout: CL renal (mL/h/kg)

[[record]]
smi = "CC(C)(c1ccc(O)cc1)c1ccc(O)cc1"
readout = "CL renal"
measurement_units = "mL/h/kg"
measurement = 2


----------
# experimental details: in vivo
# measurement context: pig, in vivo
readout: CL renal

[[record]]
smi = "CC(C)(c1ccc(O)cc1)c1ccc(O)cc1"
readout = "CL renal"
measurement = "2 mL/h/kg"


----------
# experimental details: in vivo
# measurement context: both, pig, in vivo, po
readout: bioavailability (%)

[[record]]
compound = "CC(C)(c1ccc(O)cc1)c1ccc(O)cc1 [BPA, bisphenol A]"
readout = "bioavailability"
measurement = 0.5


----------
# experimental details: in vivo
# measurement context: pig, in vivo, iv
# Method: Table 1 summarizes the protocol of the experiments and the plasma and urine datasets further considered for TK analyses. A first experiment (Exp. 1) was performed in 8 male piglets age 42 d ( 20.8±1.6kg BW) to investigate oral BPA TK. […] BPA data obtained after IV BPA administrations had already been used to evaluate human BPA clearance using an allometric approach ([Collet et al. 2015]). […]
readout: clearance (mL/min/kg)

[[record]]
molecule = "CC(C)(c1ccc(O)cc1)c1ccc(O)cc1 [BPA, bisphenol A]"
readout = "clearance"
measurement_units = "mL/min/kg"
measurement = 56.8

